experiment: wild-type TIM10 yeast growth inhibition – luminescence, uHTS, counter-screen for tim10-1 yeast inhibitor project, primary screen (AID 463195);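 note: wild-type TIM10 isogenic control strain grown at permissive 25 °C; 0% = DMSO yeast wells and 100% = minimal medium wells without yeast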; conditions: S. cerevisiae TIM10 strain growth, BacTiter-Glo luminescence, 24 h; at 10 µM
About 4,600 (1.4%) of roughly 330,000 compounds were called active.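 Rule for the calls: active = inhibition of 40% or more at the single tested concentration; inactive = the rest.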 This excerpt belongs to a sample that is enriched for actives.
Choose the fitting class; nothing outside 1 (yes) (active), 0 (no) (inactive) is accepted.

[
  {
    "molecule": "COC(=O)c1c(NC(=O)COc2ccc(Cl)cc2Cl)sc2c1CC(C)(C)NC2(C)C",
    "className": "1 (yes)"
  }
]

I would be grateful if you could indicate the recorded call for CCSC1=C(C#N)C(=O)n2c1cc1c2CCCC1 .
1 (yes)

Please state the recorded outcome for this molecule: CCOC(=O)c1cnn(Cc2ccccc2Cl)c1N
0 (no)

Which outcome was assigned to O=[N+]([O-])c1ccccc1/C=C/CN1CCC(O)CC1 in this test?
0 (no)

# lookup: test call for CC(/C=N/NC(=O)c1cc(-c2ccc3ccccc3c2)n[nH]1)=C\c1ccco1
1 (yes)

# outcome recorded in this test, key = O=C(CN1CCN(c2nc(-c3ccccc3)cs2)CC1)NCc1ccc2c(c1)OCO2
0 (no)

Field: outcome | Entry: CC1CCCC(C)N1C(=O)CN1CCN(c2nc(-c3ccc(F)cc3)cs2)CC1 (stereo unspecified)
1 (yes)

Name the outcome recorded for CC(=O)NCc1ccc(S(=O)(=O)NC2CCN(Cc3ccccc3)CC2)cc1 in the assay.
0 (no)

Please share the test call associated with CC(=O)c1c(OCC(=O)N(C)C2CCCCC2)ccc2c(C)cc(=O)oc12 .
0 (no)
